# assay-name: Thermodynamic solubility of the compound at pH 7.4
# Type: physicochemical
# stated-conditions: buffer, read-out: Therm_solubility
Each entry below lists one item and its recorded solubility thermodynamic value.
attribute-measured: solubility thermodynamic (µM)

{"columns": ["molecule", "recorded-measurement"],
 "data": [
  ["NC(=O)c1cc(Cl)c2c(Cl)c(C#CC3CC3)n(C3CCCNC3)c2n1 (racemic)", 13],
  ["NC(=O)c1cc(Cl)c2c(Cl)c(C3CC3)n(C3CCCNC3)c2n1 (racemic)", 0.4],
  ["NC(=O)c1cc(Cl)c2c(Cl)c(I)n(C3CCCNC3)c2n1 (racemic)", 42],
  ["NC(=O)c1cc(Cl)c2c(Cl)c(C3CC3)n([C@H]3CCCNC3)c2n1", 225]
]}
